# System: human Factor 7 mRNA
# procedure.text: Antisense inhibition of human Factor 7 mRNA in HepB3 cells, 50 nM antisense oligonucleotide, lipofectin
# Assay type: cell-based
# cond: Table 6, 50 nM, lipofectin, approximately 24 hours
Strand notation (5' to 3'): a small letter for the sugar, then the base; units joined by * are phosphorothioate-linked, units joined directly phosphodiester-linked; [ ] holds rarer units or linkages, { } end groups; capitals alone tell only the bases. e = 2'-O-(2-methoxyethyl) (MOE); [5mC] = 5-methylcytosine; d = 2'-deoxy (DNA)
Measured % Inhibition, listed per entry for reference.
Expressed in %, but write only the number.

Use these answered entries as a reference point.
422119 (antisense eG*e[5mC]*eG*eG*eA*dA*dG*dA*dA*dG*dG*dG*dA*d[5mC]*dG*eG*eA*eA*eG*eG) [compound 422119] = 39
422127 (antisense eT*eA*e[5mC]*eT*eG*dA*dG*d[5mC]*dG*d[5mC]*dG*dG*dA*dA*dG*eA*eA*eG*eG*eG) [compound 422127] = 17
422276 (antisense eG*eG*dT*dT*dA*d[5mC]*dT*dG*dA*dG*d[5mC]*dG*d[5mC]*dG*dG*eA*eA*eG*eA*eA) [compound 422276] = 66
422195 (antisense eA*e[5mC]*eT*dG*dA*dG*d[5mC]*dG*d[5mC]*dG*dG*dA*dA*dG*dA*dA*dG*eG*eG*eA) [compound 422195] = 37
422268 (antisense eA*eG*d[5mC]*dG*d[5mC]*dG*dG*dA*dA*dG*dA*dA*dG*dG*dG*eA*e[5mC]*eG*eG*eA) [compound 422268] = 63

Next item in the queue.
Can you look up the measured % Inhibition of 422188 (antisense eG*e[5mC]*eG*dG*dA*dA*dG*dA*dA*dG*dG*dG*dA*d[5mC]*dG*dG*dA*eA*eG*eG) [compound 422188] for me?
37

* * *

# System: human Factor 7 mRNA
# procedure.text: Antisense inhibition of human Factor 7 with short (14-mer) oligonucleotides in HepB3 cells, electroporation 1,000 nM
# Format: cell-based
# cond: electroporation, 1,000 nM antisense oligonucleotide, approximately 24 hours, Factor 7 mRNA relative to untreated control cells
Strand notation (5' to 3'): a small letter for the sugar, then the base; units joined by * are phosphorothioate-linked, units joined directly phosphodiester-linked; [ ] holds rarer units or linkages, { } end groups; capitals alone tell only the bases. e = 2'-O-(2-methoxyethyl) (MOE); [5mC] = 5-methylcytosine; d = 2'-deoxy (DNA)
endpoint.name: % Inhibition (%)
State the answer as a number, implicitly in %.

These recorded examples may help you get a feel for the data.
435651 (antisense eA*e[5mC]*dA*dG*dT*dT*d[5mC]*d[5mC]*dG*dG*d[5mC]*d[5mC]*e[5mC]*eT) [compound 435651] = 71
435734 (antisense eA*eT*dG*d[5mC]*dT*dT*d[5mC]*dT*dG*dA*dA*dT*eT*eG) [compound 435734] = 16
435501 (antisense eT*eA*d[5mC]*dT*dG*dG*dG*dA*dG*dA*d[5mC]*d[5mC]*e[5mC]*eT) [compound 435501] = 51
435795 (antisense eA*e[5mC]*dA*d[5mC]*d[5mC]*d[5mC]*dG*dA*dG*dG*dT*dT*e[5mC]*eA) [compound 435795] = 66
435634 (antisense eT*eG*dA*dA*dA*dT*d[5mC]*dT*d[5mC]*dT*dG*d[5mC]*eA*eG) [compound 435634] = 5
435784 (antisense e[5mC]*e[5mC]*dT*dA*dA*dG*dT*dG*dT*dG*d[5mC]*dT*eT*eT) [compound 435784] = 17
435808 (antisense e[5mC]*eT*d[5mC]*dT*dG*dG*dA*d[5mC]*dA*d[5mC]*d[5mC]*dG*eG*eG) [compound 435808] = 66
435671 (antisense eT*e[5mC]*dA*d[5mC]*d[5mC]*dA*dA*d[5mC]*dA*dA*d[5mC]*dA*eG*eG) [compound 435671] = 28
435776 (antisense eG*eG*dG*dA*d[5mC]*dA*d[5mC]*dT*d[5mC]*dA*d[5mC]*dA*e[5mC]*eT) [compound 435776] = 51
435841 (antisense e[5mC]*eT*d[5mC]*dG*dG*dA*d[5mC]*dA*dA*dA*dA*dG*eA*eG) [compound 435841] = 1

Please give the measured % Inhibition for this substance: 435775 (antisense eT*e[5mC]*dT*dG*dG*dA*dA*dG*dG*dA*dA*d[5mC]*eA*eG) [compound 435775]
25

Return reported % Inhibition; argument: 435818 (antisense eG*eT*d[5mC]*dA*dT*d[5mC]*d[5mC]*dT*dT*dG*dT*d[5mC]*eT*eG) [compound 435818]
43

Look up % Inhibition for this substance: 435753 (antisense eA*eA*dG*dA*dG*dT*dG*d[5mC]*dA*dG*d[5mC]*dT*eT*eG) [compound 435753]
9

Quick one: % Inhibition of 435773 (antisense e[5mC]*eA*dG*dG*dG*dA*dA*d[5mC]*dA*d[5mC]*d[5mC]*d[5mC]*eT*e[5mC]) [compound 435773] ?
57

What % Inhibition value was documented for this substance, 435718 (antisense eG*e[5mC]*dT*d[5mC]*dG*d[5mC]*dA*dG*dG*dA*dG*dG*eA*e[5mC]) [compound 435718] ?
26

Given the entry 435827 (antisense eT*e[5mC]*dA*dG*dA*dA*dA*dG*dA*dT*dG*d[5mC]*eA*eG) [compound 435827] , report its measured % Inhibition.
5

Any idea what its % Inhibition is? The substance is 435696 (antisense e[5mC]*eA*dG*dA*dA*d[5mC]*dA*dT*dG*dT*dA*d[5mC]*eT*e[5mC]) [compound 435696]
10

Any idea what its % Inhibition is? The substance is 435757 (antisense eT*eG*d[5mC]*d[5mC]*dT*dG*dA*dG*dT*dG*d[5mC]*d[5mC]*e[5mC]*e[5mC]) [compound 435757]
51

Give its % Inhibition value. Item: 435737 (antisense eG*eT*dG*d[5mC]*dA*dG*d[5mC]*d[5mC]*d[5mC]*dG*dG*d[5mC]*eA*e[5mC]) [compound 435737]
70

Reported % Inhibition for 435788 (antisense e[5mC]*e[5mC]*dT*dG*dT*dG*dA*dG*dT*dG*dT*dG*eA*eG) [compound 435788] : what is it?
20

Fill blank: measured % Inhibition of the substance 435746 (antisense eA*eT*dT*dG*dA*d[5mC]*dA*dA*dG*dG*dG*d[5mC]*eT*eG) [compound 435746] is ____.
32

Please report the recorded % Inhibition for 435727 (antisense eT*eG*dG*dA*dG*dT*d[5mC]*dA*dG*d[5mC]*dA*dT*e[5mC]*eG) [compound 435727] .
73

# query: % Inhibition of entry 435836 (antisense e[5mC]*eT*dA*dG*dG*dT*d[5mC]*dT*dG*d[5mC]*dA*dG*eG*eG) [compound 435836]
41

Return reported % Inhibition; argument: 435637 (antisense eT*eG*dA*dA*dG*d[5mC]*d[5mC]*d[5mC]*dA*dA*dG*d[5mC]*eA*eG) [compound 435637]
11

Report % Inhibition for 435504 (antisense eA*eT*dG*dT*dA*d[5mC]*dT*dG*dG*dG*dA*dG*eA*e[5mC]) [compound 435504] please.
8

Given the entry 435741 (antisense eA*eG*dG*dG*dT*dT*d[5mC]*dA*dT*dT*dT*d[5mC]*eA*eG) [compound 435741] , report its measured % Inhibition.
6

* * *

Known percent inhibition of Factor 7 of a selection of substances
# System: human Factor 7 mRNA
# procedure.text: Dose-dependent antisense inhibition of human Factor 7 in HepB3 cells, lipofectin
# Assay type: cell-based
# cond: Table 7, 100.0 nM, approximately 16 hours
Strand notation (5' to 3'): a small letter for the sugar, then the base; units joined by * are phosphorothioate-linked, units joined directly phosphodiester-linked; [ ] holds rarer units or linkages, { } end groups; capitals alone tell only the bases. e = 2'-O-(2-methoxyethyl) (MOE); [5mC] = 5-methylcytosine; d = 2'-deoxy (DNA)
# unit: % | format: bare number

416507 (antisense eG*eG*eT*eT*eA*d[5mC]*dT*dG*dA*dG*d[5mC]*dG*d[5mC]*dG*dG*eA*eA*eG*eA*eA) [compound 416507] = 72
407935 (antisense eA*eT*eG*e[5mC]*eA*dT*dG*dG*dT*dG*dA*dT*dG*d[5mC]*dT*eT*e[5mC]*eT*eG*eA) [compound 407935] = 86
416446 (antisense eG*eG*eT*e[5mC]*eA*d[5mC]*dT*dG*d[5mC]*dA*dG*dT*dA*d[5mC]*dT*eG*e[5mC]*eT*e[5mC]*eA) [compound 416446] = 64
416549 (antisense eG*eA*e[5mC]*eA*eA*dT*dG*dG*dT*d[5mC]*dA*dG*dG*dG*d[5mC]*eT*eG*eG*eT*eT) [compound 416549] = 78
416449 (antisense eT*eA*eG*eG*eT*dA*dT*dT*dT*dT*dT*d[5mC]*d[5mC]*dA*d[5mC]*eA*eT*eG*eG*eA) [compound 416449] = 85

Now, please, on to the next substance.
What measured percent inhibition of Factor 7 goes with 416438 (antisense e[5mC]*eA*eG*eG*eA*dG*d[5mC]*d[5mC]*d[5mC]*d[5mC]*d[5mC]*dA*dT*dT*d[5mC]*eT*eG*eG*e[5mC]*eA) [compound 416438] ?
82

Origin of measurements: patent US9029337B2
